Numbers sourced from patent US10851071B2.

- measurement_protocol: Rough solubility test of A-type crystal and salts of the compound of formula (I)
- measurement_conditions: acetic acid/sodium acetate buffer pH 6.8, pH 6.8, aqueous buffer, thermodynamic from solid
Consider the following compounds and their measured solubility readings.

| compound | solubility |
| --- | --- |
| CCNC(=O)c1onc(-c2cc(C(C)C)c(O)cc2O)c1-c1ccc2c(c1)CCNC2 | < 1000 µg/mL |
| CCNC(=O)c1onc(-c2cc(C(C)C)c(O)cc2O)c1-c1ccc2c(c1)CCNC2.Cl [hydrochloride] | < 2000 µg/mL |

----------
- measurement_protocol: Rough solubility test of A-type crystal and salts of the compound of formula (I)
- measurement_conditions: acetic acid/sodium acetate buffer pH 4.5, pH 4.5, aqueous buffer, thermodynamic from solid
readout: solubility

| compound | observed |
| --- | --- |
| CCNC(=O)c1onc(-c2cc(C(C)C)c(O)cc2O)c1-c1ccc2c(c1)CCNC2.Cl [hydrochloride] | 5.8 to 7.3 mg/mL |
| CCNC(=O)c1onc(-c2cc(C(C)C)c(O)cc2O)c1-c1ccc2c(c1)CCNC2 [A-type crystal] | 30 to 50 mg/mL |
